inhibition at 1.25 µM reference
# TARGET_ENTITY: mUSP18 (Mus musculus, UniProt Q9WTV6)
# Construct: (46-368); His-tag (N); made in house
# TEST_DETAILS: High-throughput screening, ISG15ct-RhoMP, single dose 1.25 µM
# Type: biochemical, murine
# TEST_CONTEXT: mUSP18 %inhibition; carboxylic acid (CA) with coupling reagents DIC/HOBT; read-out: %inh CA + DIC/HOBT
Numbers only here, please. The scale is %.

Here is how some molecules turned out for inhibition at 1.25 µM.
>  <MOLECULE>
O=C(O)c1cc(C2CC2)no1

>  <inhibition at 1.25 µM (%)>
5.85

$$$$
>  <MOLECULE>
CC(=O)Oc1ccccc1C(=O)O

>  <inhibition at 1.25 µM (%)>
-15.7

$$$$
>  <MOLECULE>
Cc1n[nH]c(C)c1S(=O)(=O)N1CCC(C(=O)O)CC1

>  <inhibition at 1.25 µM (%)>
3.04

$$$$
>  <MOLECULE>
O=C(O)c1cc(S(=O)(=O)Nc2cccc(F)c2)ccc1F

>  <inhibition at 1.25 µM (%)>
-0.67

$$$$
>  <MOLECULE>
O=C(O)c1cc(S(=O)(=O)N2CCOCC2)c[nH]1

>  <inhibition at 1.25 µM (%)>
2.51

$$$$
>  <MOLECULE>
CN1CCN(C(=O)c2ccccc2C(=O)O)CC1

>  <inhibition at 1.25 µM (%)>
-1.04

$$$$

Prompt: Tell me reported inhibition at 1.25 µM for `CN1CCN(c2ccc(C(=O)O)cc2)CC1` , tested with mUSP18 (Mus musculus, UniProt Q9WTV6).
Response: -9.79

Prompt: Tell me reported inhibition at 1.25 µM for `Cc1nc(-c2c(C)c(C)nn(C)c2=O)sc1C(=O)O` , tested with mUSP18 (Mus musculus, UniProt Q9WTV6).
Response: 3.87

Prompt: Tell me reported inhibition at 1.25 µM for `O=C(O)c1ccnc(N2CCOCC2)n1` , tested with mUSP18 (Mus musculus, UniProt Q9WTV6).
Response: 4.28

Prompt: Tell me reported inhibition at 1.25 µM for `O=C(O)c1ccn(-c2ccc(C(F)(F)F)cn2)n1` , tested with mUSP18 (Mus musculus, UniProt Q9WTV6).
Response: -1.07

Prompt: Tell me reported inhibition at 1.25 µM for `O=C(O)Cc1cnn(Cc2ccccc2)c1` , tested with mUSP18 (Mus musculus, UniProt Q9WTV6).
Response: -10.4

Prompt: Tell me reported inhibition at 1.25 µM for `Cn1nc(C(=O)O)cc1-c1cccnc1` , tested with mUSP18 (Mus musculus, UniProt Q9WTV6).
Response: 11.7

Prompt: Tell me reported inhibition at 1.25 µM for `Cc1ccc(-c2cc(C(=O)O)[nH]n2)o1` , tested with mUSP18 (Mus musculus, UniProt Q9WTV6).
Response: 4.51

Prompt: Tell me reported inhibition at 1.25 µM for O=C(O)C(c1ccccc1)n1cccc1 (centres unmarked) , tested with mUSP18 (Mus musculus, UniProt Q9WTV6).
Response: -4.48

Prompt: Tell me reported inhibition at 1.25 µM for `O=C(O)c1c(F)c(F)c(O)c(F)c1F` , tested with mUSP18 (Mus musculus, UniProt Q9WTV6).
Response: -14.4

Prompt: Tell me reported inhibition at 1.25 µM for `O=C(O)c1csc(CCc2ccccc2)n1` , tested with mUSP18 (Mus musculus, UniProt Q9WTV6).
Response: -8.03

Prompt: Tell me reported inhibition at 1.25 µM for `O=C(O)c1ccc(Oc2cccc(Cl)c2Cl)nn1` , tested with mUSP18 (Mus musculus, UniProt Q9WTV6).
Response: 12.9

Prompt: Tell me reported inhibition at 1.25 µM for `COc1cc(CC(=O)O)ccc1O` , tested with mUSP18 (Mus musculus, UniProt Q9WTV6).
Response: -15.5

----------
# TARGET_ENTITY: mUSP18 (Mus musculus, UniProt Q9WTV6)
# Construct: (46-368); His-tag (N); made in house
# Sequence (Q9WTV6 46-368): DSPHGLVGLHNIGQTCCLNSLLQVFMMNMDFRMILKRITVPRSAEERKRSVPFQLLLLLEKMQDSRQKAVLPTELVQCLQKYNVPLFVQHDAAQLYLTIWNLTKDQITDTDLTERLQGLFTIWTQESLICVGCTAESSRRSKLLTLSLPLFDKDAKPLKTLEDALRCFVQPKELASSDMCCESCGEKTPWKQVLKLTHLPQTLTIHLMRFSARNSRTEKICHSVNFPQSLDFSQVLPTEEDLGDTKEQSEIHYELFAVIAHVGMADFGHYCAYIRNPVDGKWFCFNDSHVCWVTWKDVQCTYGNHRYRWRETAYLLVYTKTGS
# TEST_DETAILS: High-throughput screening, ISG15ct-RhoMP, single dose 1.25 µM
# Format: biochemical, murine
# TEST_CONTEXT: mUSP18 %inhibition; carboxylic acid (CA) with coupling reagents DIC/HOBT; read-out: %inh CA + DIC/HOBT
QUANTITY_KIND: inhibition at 1.25 µM (%)
Numbers only here, please. The scale is %.

Here is how some compounds turned out for inhibition at 1.25 µM.
>  <COMPOUND>
CC(=O)NCC(=O)O [CA002]

>  <TARGET_ENTITY>
mUSP18 (Mus musculus, UniProt Q9WTV6)

>  <UNIT_SYMBOL>
%

>  <inhibition at 1.25 µM>
-10.9

$$$$
>  <COMPOUND>
O=C(O)CCCCCBr [CA025]

>  <TARGET_ENTITY>
mUSP18 (Mus musculus, UniProt Q9WTV6)

>  <UNIT_SYMBOL>
%

>  <inhibition at 1.25 µM>
-8.17

$$$$

Prompt: Tell me reported inhibition at 1.25 µM for O=C(O)C1CC1 [CA077] , tested with mUSP18 (Mus musculus, UniProt Q9WTV6).
Response: -14.4

Prompt: Tell me reported inhibition at 1.25 µM for CN1CCN(CC(=O)O)CC1 [CA076] , tested with mUSP18 (Mus musculus, UniProt Q9WTV6).
Response: -15.7

Prompt: Tell me reported inhibition at 1.25 µM for CC1(C(=O)O)CCCCN1C(=O)OCc1ccccc1 (centres unmarked) [CA366] , tested with mUSP18 (Mus musculus, UniProt Q9WTV6).
Response: 3.29

Prompt: Tell me reported inhibition at 1.25 µM for O=C(O)c1ccnn1C1CCOCC1 [CA216] , tested with mUSP18 (Mus musculus, UniProt Q9WTV6).
Response: 2.43

Prompt: Tell me reported inhibition at 1.25 µM for O=C(O)CC1(n2cccc2)CCCCC1 [CA229] , tested with mUSP18 (Mus musculus, UniProt Q9WTV6).
Response: 5.66

Prompt: Tell me reported inhibition at 1.25 µM for O=C(O)c1ccn(-c2ncc(C(F)(F)F)cc2Cl)n1 [CA135] , tested with mUSP18 (Mus musculus, UniProt Q9WTV6).
Response: 10.4

Prompt: Tell me reported inhibition at 1.25 µM for Cc1nn(-c2cccnc2)nc1C(=O)O [CA314] , tested with mUSP18 (Mus musculus, UniProt Q9WTV6).
Response: -5.31

Prompt: Tell me reported inhibition at 1.25 µM for Cc1onc(C(=O)O)c1CN1CCN(C)CC1 [CA413] , tested with mUSP18 (Mus musculus, UniProt Q9WTV6).
Response: -3.44

Prompt: Tell me reported inhibition at 1.25 µM for O=C(O)Cc1cccc(OCc2cccnc2)c1 [CA202] , tested with mUSP18 (Mus musculus, UniProt Q9WTV6).
Response: 3.16

Prompt: Tell me reported inhibition at 1.25 µM for O=C(O)Cc1ccn(-c2ccccc2)n1 [CA246] , tested with mUSP18 (Mus musculus, UniProt Q9WTV6).
Response: 5.35

Prompt: Tell me reported inhibition at 1.25 µM for CC(C)(C)OC(=O)NC1(C(=O)O)CC1 [CA060] , tested with mUSP18 (Mus musculus, UniProt Q9WTV6).
Response: -13.2

----------
inhibition at 1.25 µM reference
# TARGET_ENTITY: mUSP18 (Mus musculus, UniProt Q9WTV6)
# Construct: (46-368); His-tag (N); made in house
# TEST_DETAILS: High-throughput screening, ISG15ct-RhoMP, single dose 1.25 µM
# Format: biochemical, murine
# TEST_CONTEXT: mUSP18 %inhibition; carboxylic acid (CA) building block alone; read-out: %inh CA only
Numbers only here, please. The scale is %.

>  <MOLECULE>
CN1CCN(CC(=O)O)CC1

>  <TARGET_ENTITY>
mUSP18 (Mus musculus, UniProt Q9WTV6)

>  <UNIT_SYMBOL>
%

>  <inhibition at 1.25 µM>
-7.27

$$$$
>  <MOLECULE>
Cn1cc(S(=O)(=O)N2CCCC(C(=O)O)C2)cn1 (stereo not shown)

>  <TARGET_ENTITY>
mUSP18 (Mus musculus, UniProt Q9WTV6)

>  <UNIT_SYMBOL>
%

>  <inhibition at 1.25 µM>
0.78

$$$$
>  <MOLECULE>
O=C(O)[1C@@H]1CCCO[1C@H]1c1ccccc1

>  <TARGET_ENTITY>
mUSP18 (Mus musculus, UniProt Q9WTV6)

>  <UNIT_SYMBOL>
%

>  <inhibition at 1.25 µM>
2.12

$$$$
>  <MOLECULE>
CCOc1oc(-c2ccco2)nc1C(=O)O

>  <TARGET_ENTITY>
mUSP18 (Mus musculus, UniProt Q9WTV6)

>  <UNIT_SYMBOL>
%

>  <inhibition at 1.25 µM>
14.4

$$$$
>  <MOLECULE>
Cc1cc(C(=O)N(C)c2ccccc2C(=O)O)sc1C

>  <TARGET_ENTITY>
mUSP18 (Mus musculus, UniProt Q9WTV6)

>  <UNIT_SYMBOL>
%

>  <inhibition at 1.25 µM>
13.5

$$$$

Prompt: Tell me reported inhibition at 1.25 µM for `O=C(O)c1cccc(Cn2cncn2)c1` , tested with mUSP18 (Mus musculus, UniProt Q9WTV6).
Response: -2.66

Prompt: Tell me reported inhibition at 1.25 µM for CSCCC(NC(C)=O)C(=O)O (stereo not shown) , tested with mUSP18 (Mus musculus, UniProt Q9WTV6).
Response: 4.64

Prompt: Tell me reported inhibition at 1.25 µM for `O=C(O)Cc1ccc(OCCOc2ccccc2)cc1` , tested with mUSP18 (Mus musculus, UniProt Q9WTV6).
Response: -2.15

Prompt: Tell me reported inhibition at 1.25 µM for `O=C(O)c1cccc(COc2cccc(F)c2)c1` , tested with mUSP18 (Mus musculus, UniProt Q9WTV6).
Response: 9.72

Prompt: Tell me reported inhibition at 1.25 µM for `O=C(O)c1cnn(Cn2cc(Cl)cn2)c1` , tested with mUSP18 (Mus musculus, UniProt Q9WTV6).
Response: -3.47
